# EXPERIMENTAL DETAILS: Intrinsic pKa and intrinsic solubility from the model applied to literature titration data (Bjerrum plots)
# Format: physicochemical
# EXPERIMENTAL CONDITIONS: model fit to literature titration data; value at infinite dilution
QUANTITY NAME: pKa
Give only the figure.

*Q* // pKa lookup, key: CN(C)CCCOc1nn(Cc2ccccc2)c2ccccc12 [benzydamine]
*A* 9.6
